Structures can show the parent of a compound that is named as a salt.
readout_kind: melting point (°C)

Recorded melting point, per entry:
1) CN1CCC(OC(c2nc3ccccc3[nH]2)c2cc(Br)ccc2F)CC1 (centres unmarked) : 232
2) CC(C)Oc1cccc(C(NC2CCN(C)CC2)c2nc3ccccc3s2)c1 (centres unmarked) (as salt: oxalate) : 96
3) CN1CCC(OC(c2cccc(N3CCC(O)CC3)c2)c2nc3ccccc3s2)CC1 (centres unmarked) (as salt: oxalate) : 110
4) CCOc1cccc(C(OC2CCN(C)CC2)c2nc3ccccc3s2)c1 (centres unmarked) (as salt: oxalate) : 84
5) CN1CCC(OC(c2nc3ccccc3[nH]2)c2cc(OCCF)ccc2F)CC1 (centres unmarked) (as salt: oxalate) : 109
6) CN1CCC(NC(c2cc3ccccc3o2)c2nc3ccccc3s2)CC1 (centres unmarked) (as salt: oxalate) : 125

1 = CN1CCC(OC(c2cccc(-c3cncnc3)c2)c2nc3ccccc3s2)CC1 (centres unmarked)
2 = CN1CCC(OC(c2cccc(N3CCC(N)C3)c2)c2nc3ccccc3s2)CC1 (centres unmarked) (as salt: oxalate) [Example 429]
Sorting by melting point in descending order, would 1 or 2 appear first? Return value: the label identifying the chosen record. 2

* * *

target: human H4 receptor (Homo sapiens, UniProt Q9H3N8); construct: expressed in transfected cells; assay: [3H]Histamine binding on membranes of CHO cells stably expressing human H4 receptor
List of Ki or IC50 activity class values.

Recorded Ki or IC50 activity class, per entry:
1) Cc1ccc(O)c(C(OC2CCN(C)CC2)c2nc3ccccc3[nH]2)c1 (stereo not drawn) [Example 578] : < 0.03 µM
2) Cc1cc(F)cc(C(NC2CCN(C)CC2)c2nc3ccccc3s2)c1 (stereo not drawn) [Example 44] : < 1 µM
3) CC(=O)CCCOc1cccc(C(OC2CCN(C)CC2)c2nc3ccccc3s2)c1 (stereo not drawn) [Example 186] : < 1 µM
4) COc1cc(F)cc(C(OC2CCN(C)CC2)c2nc3ccccc3[nH]2)c1O (stereo not drawn) [Example 610] : < 1 µM
5) CN1CCC(OC(c2cccc(I)c2)c2nc3ccccc3n2C)CC1 (stereo not drawn) [Example 472] : < 0.3 µM
6) Cc1cc(F)c(C(OC2CCN(C)CC2)c2nc3ccccc3s2)c(F)c1 (stereo not drawn) [Example 531] : < 0.03 µM

Fill in: Ki or IC50 activity class of C=Cc1cccc(C(OC2CCN(C)CC2)c2nc3ccccc3s2)c1 (stereo not drawn) [Example 218] is ___ < 0.03 µM

Fill in: Ki or IC50 activity class of CN1CCC(OC(c2cccc(C=CC(=O)OC(C)(C)C)c2)c2nc3ccccc3s2)CC1 (stereo not drawn) [Example 205] is ___ < 1 µM

Fill in: Ki or IC50 activity class of CCCOc1cccc(C(OC2CCN(C)CC2)c2nc3ccccc3s2)c1 (stereo not drawn) [Example 26] is ___ < 0.03 µM

* * *

List of Ki or IC50 activity class values.
target: human H4 receptor (Homo sapiens); construct: expressed in transfected cells; assay: [3H]Histamine binding on membranes of CHO cells stably expressing human H4 receptor

Fill in: Ki or IC50 activity class of CN1CCC(OC(c2cccc(OCc3ccccn3)c2)c2nc3ccccc3s2)CC1 (centres unmarked) is ___ < 30 nM

* * *

readout_kind: melting point (°C)

Recorded melting point, per entry:
1. CN1CCC(OC(c2nc3ccccc3s2)c2cccc3ccccc23)CC1 (centres unmarked) : 106.5
2. Cc1cc(F)cc(O)c1C(OC1CCN(C)CC1)c1nc2ccccc2[nH]1 (centres unmarked) : 146
3. CN1CCC(OC(c2cccc(-c3ccc(OC(F)(F)F)cc3)c2)c2nc3ccccc3[nH]2)CC1 (centres unmarked) : 90
4. CCCOc1cccc(C(NC2CCN(C)CC2)c2nc3ccccc3[nH]2)c1 (centres unmarked) : 143
5. CN1CCC(OC(c2cccc(C#CCCCNC(=N)NC(=O)OC(C)(C)C)c2)c2nc3ccccc3s2)CC1 (centres unmarked) : 125

P = CN1CCC(OC(c2ccccc2)c2nc3ccccc3s2)CC1 (centres unmarked)
Q = CN1CCC(OC(c2cccc(N=[N+]=[N-])c2)c2nc3ccccc3[nH]2)CC1 (centres unmarked)
Sorting by melting point in descending order, would P or Q appear first? Return value: the label identifying the chosen record. P
(P: 115 °C, Q: 53 °C)

* * *

Structures can show the parent of a compound that is named as a salt.
readout_kind: melting point (°C)

Recorded melting point, per entry:
1) CCOCCn1c(C(OC2CCN(C)CC2)c2cccc(C#CCCCCN)c2)nc2ccccc21 (stereo not shown) (as salt: oxalate) [Example 500] : 103
2) CN1CCC(OC(c2cccc(CCCCCN)c2)c2nc3ccccc3s2)CC1 (stereo not shown) (as salt: hydrochloride) [Example 289] : 110
3) CN1CCC(OC(c2cccc(OCC3CCCNC3)c2)c2nc3ccccc3s2)CC1 (stereo not shown) (as salt: oxalate) [Example 378] : 55
4) CN1CCC(OC(c2cccc(OC3CNC3)c2)c2nc3ccccc3s2)CC1 (stereo not shown) (as salt: oxalate) [Example 402] : 81

1 = Cc1cc(F)c(O)c(C(OC2CCN(C)CC2)c2nc3ccccc3[nH]2)c1 (stereo not shown) [Example 595]
2 = CC(C)CCOc1cccc(C(NC2CCN(C)CC2)c2nc3ccccc3[nH]2)c1 (stereo not shown) [Example 68]
Sorting by melting point in descending order, would 1 or 2 appear first? Return value: the label identifying the chosen record. 1
(1: 144 °C, 2: 70 °C)

* * *

Structures can show the parent of a compound that is named as a salt.
readout_kind: melting point (°C)

1) CN1CCC(NC(c2cccc(OCCC3=CCC4CC3C4(C)C)c2)c2nc3ccccc3[nH]2)CC1 (stereo not shown) (as salt: oxalate) [Example 181] : 123
2) CN1CCC(OC(c2ccc(F)cc2)c2nc3ccccc3s2)CC1 (stereo not shown) (as salt: oxalate) [Example 3] : 192
3) CN1CCC(OC(c2cccc(-c3ccccc3CO)c2)c2nc3ccccc3[nH]2)CC1 (stereo not shown) [Example 123] : 107
4) CN1CCC(OC(c2nc3ccccc3[nH]2)c2cc(Br)ccc2O)CC1 (stereo not shown) [Example 575] : 145

* * *

Counter-ions that a name gives are not always drawn.
readout_kind: melting point (°C)

Recorded melting point, per entry:
1. CN1CCC(OC(c2cccc(OCCCN3CCN(C(=O)OC(C)(C)C)CC3)c2)c2nc3ccccc3[nH]2)CC1 (stereo not shown) (as salt: oxalate) : 140
2. CN1CCC(OC(c2ccccc2)c2nc3ccccc3s2)C1 (stereo not shown) (as salt: oxalate) : 120
3. CN1CCC(OC(c2cccc(OCCCn3cncn3)c2)c2nc3ccccc3s2)CC1 (stereo not shown) (as salt: oxalate) : 60

a = CN1CCC(OC(c2cccc(C(F)(F)F)c2)c2nc3ccccc3s2)CC1 (stereo not shown) (as salt: hydrochloride)
b = CN1CCC(OC(c2nc3ccccc3[nH]2)c2cc(F)ccc2F)CC1 (stereo not shown)
c = CN1CCC(NC(c2cccc(O)c2)c2nc3ccccc3[nH]2)CC1 (stereo not shown)
Order these by melting point, descending, and give the full ranking. In plain terms: list the labels in the order you were asked to. c, b, a
(c: 230 °C, b: 140 °C, a: 61 °C)

1 = COc1cccc(C(OC2CCN(C)CC2)c2nc3ccccc3s2)c1 (stereo not shown) (as salt: hydrochloride)
2 = CN1CCC(OC(c2cccc(-c3ccn[nH]3)c2)c2nc3ccccc3s2)CC1 (stereo not shown)
Sorting by melting point in descending order, would 1 or 2 appear first? Return value: the label identifying the chosen record. 1

a = CN1CCC(OC(c2nc3ccccc3[nH]2)c2c(O)cccc2F)CC1 (stereo not shown)
b = CN1CCC(OC(c2cccc(N3CCCC3CO)c2)c2nc3ccccc3s2)CC1 (stereo not shown) (as salt: oxalate) [Example 323]
c = CN1CCC(OC(c2nc3ccccc3[nH]2)c2cccc(SCCN)c2F)CC1 (stereo not shown)
Order these by melting point, descending, and give the full ranking. In plain terms: list the labels in the order you were asked to. c, a, b
(c: 204 °C, a: 129 °C, b: 76 °C)

* * *

Where a name gives a salt, the structure may show the parent alone.
readout_kind: melting point (°C)

Recorded melting point, per entry:
1. C=Cc1cccc(C(OC2CCN(C)CC2)c2nc3ccccc3s2)c1 (centres unmarked) [Example 218] : 165
2. Cc1ccc(F)c(C(OC2CCN(C)CC2)c2nc3ccccc3[nH]2)c1 (centres unmarked) (as salt: oxalate) [Example 490] : 132
3. Cc1cc(C(OC2CCN(C)CC2)c2nc3ccccc3[nH]2)c(O)c(F)c1C (centres unmarked) [Example 622] : 163
4. CN1CCC(OC(c2cccc(SCCN)c2)c2nc3cc(F)ccc3[nH]2)CC1 (centres unmarked) (as salt: oxalate) [Example 428] : 85
5. Cc1cc(F)c(C(OC2CCN(C)CC2)c2nc3ccccc3[nH]2)c(F)c1 (centres unmarked) [Example 523] : 211
6. CN1CCC(NC(c2cccc(OCC3CCCCC3)c2)c2nc3ccccc3[nH]2)CC1 (centres unmarked) [Example 73] : 88

1 = CN1CCC(OC(c2cccc(C#CCCCO)c2)c2nc3ccccc3[nH]2)CC1 (centres unmarked) [Example 192]
2 = CN1CCC(OC(c2nc3ccccc3[nH]2)c2cc(I)ccc2F)CC1 (centres unmarked) (as salt: oxalate) [Example 425]
Sorting by melting point in descending order, would 1 or 2 appear first? Return value: the label identifying the chosen record. 2
(2: 175 °C, 1: 85 °C)

Where do the numbers come from? From patent US8802664B2.
